Assay: Net heat of combustion (combustion calorimeter)
Format: physicochemical
Excerpt: All chemicals and reagent grade solvents were obtained from commercial vendors and were used as received. ^1H and ^13C NMR spectra were obtained at room temperature on a Bruker AV400 MHz spectrometer, with chemical shifts (6) referenced to the residual solvent signal (^1H and ^13C). […] Two additional factors to consider for diesel fuel formulation are density and net heat of combustion (NHOC). […] A related metric is the NHOC, which is a measure of the energy contained in a given quantity of a compound. […]
Recorded Endpoint: NHOC (net heat of combustion) (mJ/L)

Using known records, supply NHOC (net heat of combustion) for CCCC1OC(C)C(C)O1 (centres unmarked) [Compound 3, 4,5-Dimethyl-2-propyl-1,3-dioxolane]
27.67

Complete the entry with NHOC (net heat of combustion) for CCCCC(CC)C1OC(C)C(C)O1 (centres unmarked) [Compound 2]
30.41

Indicate the recorded NHOC (net heat of combustion) value for this molecule: CCCCCCCC1OC(C)C(C)O1 (centres unmarked) [Compound 5, 4,5-Dimethyl-2-heptyl-1,3-dioxolane]
30.06

Please report the measured NHOC (net heat of combustion) for CCC(CC)C1OC(C)C(C)O1 (centres unmarked) [Compound 1]
29.45

Item CCCCCC1OC(C)C(C)O1 (centres unmarked) [Compound 4, 4,5-Dimethyl-2-pentyl-1,3-dioxolane] : provide NHOC (net heat of combustion)
29.20
